Source listed as patent US20030091584A1.

- assayedTarget: T1, RSV F glycoprotein (NUF4) (respiratory syncytial virus)
- T1 chain 1: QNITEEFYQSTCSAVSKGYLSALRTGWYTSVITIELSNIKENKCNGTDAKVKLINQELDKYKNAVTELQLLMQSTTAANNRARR
- T1 chain 2: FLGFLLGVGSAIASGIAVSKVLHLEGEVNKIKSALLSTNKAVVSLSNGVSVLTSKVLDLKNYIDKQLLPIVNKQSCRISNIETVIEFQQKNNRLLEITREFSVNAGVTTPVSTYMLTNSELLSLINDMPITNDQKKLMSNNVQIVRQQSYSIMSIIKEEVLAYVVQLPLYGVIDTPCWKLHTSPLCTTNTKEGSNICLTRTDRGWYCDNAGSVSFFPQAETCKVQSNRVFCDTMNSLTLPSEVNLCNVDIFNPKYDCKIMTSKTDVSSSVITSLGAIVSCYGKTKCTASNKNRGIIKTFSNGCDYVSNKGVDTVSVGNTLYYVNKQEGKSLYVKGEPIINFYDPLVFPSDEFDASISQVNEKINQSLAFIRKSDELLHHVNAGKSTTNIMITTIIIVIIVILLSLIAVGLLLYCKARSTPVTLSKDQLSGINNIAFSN
- assayText: BIAcore, mAb vs NUF4 (1:1)

# binder, readoutUnit, koff
rows = [
    ("A13c4 (monoclonal antibody) (antibody, V domains shown, mAb with framework and constant regions of SYNAGIS) VH: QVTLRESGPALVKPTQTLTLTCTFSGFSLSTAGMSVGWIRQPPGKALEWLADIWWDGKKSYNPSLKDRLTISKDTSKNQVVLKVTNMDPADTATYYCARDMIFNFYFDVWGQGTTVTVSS VL: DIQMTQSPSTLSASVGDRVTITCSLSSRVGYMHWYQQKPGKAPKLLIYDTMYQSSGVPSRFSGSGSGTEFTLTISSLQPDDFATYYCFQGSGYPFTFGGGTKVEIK", "s⁻¹", 0.000272),
]
